- Target system: human serotonin transporter (Homo sapiens (Human))
- Sequence (P31645 whole entry): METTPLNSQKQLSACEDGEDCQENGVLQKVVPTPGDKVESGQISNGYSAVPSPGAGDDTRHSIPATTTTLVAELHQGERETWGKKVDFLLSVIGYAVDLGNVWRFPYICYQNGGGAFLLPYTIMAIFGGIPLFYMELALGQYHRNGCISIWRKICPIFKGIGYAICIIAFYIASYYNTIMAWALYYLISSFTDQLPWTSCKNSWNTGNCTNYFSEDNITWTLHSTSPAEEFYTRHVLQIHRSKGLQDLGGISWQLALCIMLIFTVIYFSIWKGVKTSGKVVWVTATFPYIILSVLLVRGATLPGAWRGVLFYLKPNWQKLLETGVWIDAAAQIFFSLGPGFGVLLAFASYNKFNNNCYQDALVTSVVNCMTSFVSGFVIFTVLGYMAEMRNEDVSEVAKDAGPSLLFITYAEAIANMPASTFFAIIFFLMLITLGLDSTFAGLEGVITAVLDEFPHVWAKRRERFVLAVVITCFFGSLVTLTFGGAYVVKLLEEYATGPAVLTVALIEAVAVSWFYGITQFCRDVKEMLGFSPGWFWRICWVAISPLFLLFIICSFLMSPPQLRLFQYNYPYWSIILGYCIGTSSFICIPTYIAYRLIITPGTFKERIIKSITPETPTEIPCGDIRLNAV
- Assay notes: Serotonin functional uptake assay, recombinant human transporter in HEK-293 cells
- Format: cell-based
- Conditions used: Human serotonin transporter uptake; read-out: hSERT IC50
Criterion: IC50 strictly under 2000 nM. Met: 1 (yes). Not met: 0 (no).

Quick check: IC50 of CNC[C@]1(c2ccc(OC(F)(F)F)cc2)CCCC[C@H]1O (single isomer, unassigned) [146 E2] under 2000 nM?
0 (no)

Quick check: IC50 of CNC[C@]1(c2ccc(OC(F)(F)F)cc2)CCCC[C@H]1O (single isomer, unassigned) [146 E1] under 2000 nM?
0 (no)

Quick check: IC50 of `NC[C@]1(c2ccc(Cl)c(Cl)c2)CC[C@H](O)CC1` under 2000 nM?
0 (no)

Quick check: IC50 of CN(C)C[C@@]1(c2ccc(C(F)(F)F)cc2)CCCC[C@H]1O (single isomer, unassigned) [159 E1] under 2000 nM?
1 (yes)

Quick check: IC50 of CN(C)C[C@@]1(c2ccc(Cl)c(F)c2)CCCC[C@H]1O (single isomer, unassigned) [157 E1] under 2000 nM?
1 (yes)

Quick check: IC50 of CN(C)C[C@@]1(c2ccc(Cl)c(F)c2)CCCC[C@H]1O (single isomer, unassigned) [157 E2] under 2000 nM?
1 (yes)

Quick check: IC50 of `CN(C)C[C@]1(c2ccc(Cl)c(Cl)c2)CC[C@H](O)CC1` under 2000 nM?
1 (yes)

Quick check: IC50 of CN(C)C[C@]1(c2ccc(Cl)c(F)c2)CCCC[C@H]1O (single isomer, unassigned) [158 E1] under 2000 nM?
0 (no)

Quick check: IC50 of CN(C)C[C@@]1(c2ccc(Cl)c(Cl)c2)CCCC[C@H]1O (single isomer, unassigned) [152 E2] under 2000 nM?
1 (yes)

----------
- Target system: human serotonin transporter (Homo sapiens (Human))
- Assay notes: Serotonin functional uptake assay, recombinant human transporter in HEK-293 cells
- Format: cell-based
- Conditions used: hSERT IC50
Endpoint label: IC50

Return the recorded IC50 value; entry: CNC[C@]1(c2cccc(Cl)c2)CCCC[C@H]1O (single isomer, unassigned) [138 E1]
> 10 µM

----------
- Target system: DA Transporter (DAT) sites in mouse brain (Mus musculus (Mouse))
- Assay notes: Ex vivo [3H] WIN 35428 binding to DAT sites in mouse brain after oral dosing
- Conditions used: mouse; mice, 30 mg/kg PO, 60 min after treatment
Counter-ions that a name gives are not always drawn.
Endpoint label: receptor occupancy at 30 mg/kg

Return the recorded receptor occupancy at 30 mg/kg value; entry: CN(C)CC1(c2ccc(Cl)c(Cl)c2)CCC(C)(O)CC1 (stereo not drawn)
26%

Return the recorded receptor occupancy at 30 mg/kg value; entry: CN(C)C[C@]1(c2ccc3ccccc3c2)CCCC[C@H]1O (relative stereo) [164 E1]
27%

Return the recorded receptor occupancy at 30 mg/kg value; entry: CN[C@H](C)C1(c2ccc(Cl)c(Cl)c2)CCCCC1 (stereo in doubt) [48 E1, hydrochloride]
84%

----------
Please go through the items and note down their receptor occupancy at 1 mg/kg.
- Target system: DA Transporter (DAT) sites in mouse brain (Mus musculus (Mouse))
- Assay notes: Ex vivo [3H] WIN 35428 binding to DAT sites in mouse brain after oral dosing
- Conditions used: mouse; mice, 1 mg/kg PO, 60 min after treatment
Structures can show the parent of a compound that is named as a salt.
Just the number please, in %, no unit attached.

Return the recorded receptor occupancy at 1 mg/kg value; entry: CC(N(C)C)C1(c2ccc3ccccc3c2)CCCCC1 (single isomer, unassigned) [56 E1]
5

Return the recorded receptor occupancy at 1 mg/kg value; entry: CN(C)C[C@]1(c2ccc3ccccc3c2)CCCC[C@H]1O (relative stereo) [164 E1]
-11

Return the recorded receptor occupancy at 1 mg/kg value; entry: CNCC1(c2ccc(Cl)c(Cl)c2)CCC(C)(O)CC1 (stereo not shown)
-21

Return the recorded receptor occupancy at 1 mg/kg value; entry: CN(C)CC1(c2ccc(Cl)c(Cl)c2)CCC(C)(O)CC1 (stereo not shown)
17

Return the recorded receptor occupancy at 1 mg/kg value; entry: CNC(C)C1(c2ccc3ccccc3c2)CCCCC1 (single isomer, unassigned) [58 E1]
7

Return the recorded receptor occupancy at 1 mg/kg value; entry: CN[C@H](C)C1(c2ccc(Cl)c(Cl)c2)CCCCC1 (stereo in doubt) [48 E1, hydrochloride]
-1

Return the recorded receptor occupancy at 1 mg/kg value; entry: CN(C)C[C@]1(c2ccc(Cl)c(Cl)c2)CCCC[C@H]1O (relative stereo) [153 E2]
-10

----------
- Target system: human dopamine transporter (Homo sapiens (Human), UniProt Q01959)
- Sequence (Q01959 whole entry): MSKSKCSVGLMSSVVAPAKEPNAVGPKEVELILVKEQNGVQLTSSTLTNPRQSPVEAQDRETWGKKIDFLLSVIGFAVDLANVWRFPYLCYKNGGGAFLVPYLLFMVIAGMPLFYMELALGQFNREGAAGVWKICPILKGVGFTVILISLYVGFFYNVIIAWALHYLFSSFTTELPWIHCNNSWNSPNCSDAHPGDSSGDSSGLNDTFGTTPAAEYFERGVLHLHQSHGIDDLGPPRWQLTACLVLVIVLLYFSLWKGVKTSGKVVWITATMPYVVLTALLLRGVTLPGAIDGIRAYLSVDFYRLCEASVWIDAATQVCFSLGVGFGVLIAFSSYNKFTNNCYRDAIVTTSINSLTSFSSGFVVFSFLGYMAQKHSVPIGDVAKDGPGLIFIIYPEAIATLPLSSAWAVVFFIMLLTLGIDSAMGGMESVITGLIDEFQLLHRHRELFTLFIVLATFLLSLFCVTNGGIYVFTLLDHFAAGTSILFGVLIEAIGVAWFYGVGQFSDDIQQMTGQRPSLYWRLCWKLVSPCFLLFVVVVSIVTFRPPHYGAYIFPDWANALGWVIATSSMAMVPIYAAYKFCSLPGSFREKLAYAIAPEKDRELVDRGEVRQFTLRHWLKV
- Assay notes: Dopamine functional uptake assay, recombinant human transporter in CHO-K1 or HEK293 cells
- Type: cell-based
- Conditions used: read-out: hDAT IC50
Counter-ions that a name gives are not always drawn.
Criterion: IC50 strictly under 3 µM. Met: MET. Not met: NOT MET.

Quick check: IC50 of CN(C)C[C@]1(c2ccc(Cl)c(F)c2)CCCC[C@H]1O (single isomer, unassigned) [158 E2] under 3 µM?
NOT MET

Quick check: IC50 of NC[C@]1(c2ccc(Cl)c(Cl)c2)CCC[C@H](O)C1 (single isomer, unassigned) [184 E2] under 3 µM?
MET

Quick check: IC50 of CNC[C@@]1(c2ccc(Cl)c(Cl)c2)CCCC[C@H]1C (racemic) [Compound 176] under 3 µM?
MET

Quick check: IC50 of CNC[C@]1(c2ccc(Cl)cc2)CCCC[C@H]1O (single isomer, unassigned) [136 E2] under 3 µM?
NOT MET

Quick check: IC50 of CN(C)C[C@@]1(c2ccc(Cl)c(Cl)c2)CCC[C@H](O)C1 (single isomer, unassigned) [191 E2] under 3 µM?
MET

Quick check: IC50 of C[C@@H]1CCCC[C@@]1(CN)c1ccc(Cl)c(Cl)c1 (racemic) [Compound 174, hydrochloride] under 3 µM?
MET

Quick check: IC50 of CNC[C@]1(c2ccc(OC)cc2)CCCC[C@H]1O (single isomer, unassigned) [140 E1] under 3 µM?
NOT MET

Quick check: IC50 of CN(C)CC1(c2ccc(Cl)c(Cl)c2)CCC(C)(O)CC1 (centres unmarked) [Compound 277] under 3 µM?
MET

----------
Please go through the items and note down their NET Mean Specific Binding ± S.E.M..
- Target system: Norepinephrine Transporter (NET) sites in mouse brain (Mus musculus (Mouse), UniProt O55192)
- Conditions used: mice, 3 mg/kg PO, 60 min after treatment
Where a name gives a salt, the structure may show the parent alone.
Just the number please, in dpm, no unit attached.

Return the recorded NET Mean Specific Binding ± S.E.M. value; entry: CN(C)CC1(c2ccc(Cl)c(Cl)c2)CCC(C)(O)CC1 (stereo not shown)
824

Return the recorded NET Mean Specific Binding ± S.E.M. value; entry: `CN(C)C[C@]1(c2ccc3ccccc3c2)CC[C@](C)(O)CC1`
813

Return the recorded NET Mean Specific Binding ± S.E.M. value; entry: CN(C)C[C@]1(c2ccc3ccccc3c2)CCCC[C@H]1O (relative stereo) [164 E1]
1046

Return the recorded NET Mean Specific Binding ± S.E.M. value; entry: CC(N(C)C)C1(c2ccc3ccccc3c2)CCCCC1 (single isomer, unassigned) [56 E1]
368

Return the recorded NET Mean Specific Binding ± S.E.M. value; entry: CN[C@H](C)C1(c2ccc(Cl)c(Cl)c2)CCCCC1 (stereo in doubt) [48 E1, hydrochloride]
1911

Return the recorded NET Mean Specific Binding ± S.E.M. value; entry: CN(C)C[C@]1(c2ccc(Cl)c(Cl)c2)CCCC[C@H]1O (relative stereo) [153 E2]
1726

Return the recorded NET Mean Specific Binding ± S.E.M. value; entry: CNCC1(c2ccc(Cl)c(Cl)c2)CCC(C)(O)CC1 (stereo not shown)
1631

----------
Please go through the items and note down their receptor occupancy at 30 mg/kg.
- Target system: Norepinephrine Transporter (NET) sites in mouse brain (Mus musculus (Mouse))
- Assay notes: in vivo
- Conditions used: po, read-out: NET % Transporter Occupancy
Counter-ions that a name gives are not always drawn.
Just the number please, in %, no unit attached.

Return the recorded receptor occupancy at 30 mg/kg value; entry: CN(C)C[C@]1(c2ccc(Cl)c(Cl)c2)CCCC[C@H]1O (relative stereo) [153 E2]
40

Return the recorded receptor occupancy at 30 mg/kg value; entry: CNCC1(c2ccc(Cl)c(Cl)c2)CCC(C)(O)CC1 (stereo not drawn)
26

Return the recorded receptor occupancy at 30 mg/kg value; entry: CN[C@H](C)C1(c2ccc(Cl)c(Cl)c2)CCCCC1 (stereo in doubt) [48 E1, hydrochloride]
86

Return the recorded receptor occupancy at 30 mg/kg value; entry: CN(C)C[C@]1(c2ccc3ccccc3c2)CCCC[C@H]1O (relative stereo) [164 E1]
41

Return the recorded receptor occupancy at 30 mg/kg value; entry: CC(N(C)C)C1(c2ccc3ccccc3c2)CCCCC1 (single isomer, unassigned) [56 E1]
98

Return the recorded receptor occupancy at 30 mg/kg value; entry: CN(C)CC1(c2ccc(Cl)c(Cl)c2)CCC(C)(O)CC1 (stereo not drawn)
71
